Entry source: patent US8563545B2

- Run Description: Caco2 permeability
- Assay type: in vitro ADME
- Assay Context: human, Caco-2, pH 7.4; Papp B>A/Papp A>B
Endpoint Label: efflux ratio at 1 h, 10 µM
Numbers only.

Item under review: `O=C(Nc1nc2cccc(-c3ccc(CN4CCC(F)(F)CC4)cc3)n2n1)C1CC1` . Reported efflux ratio at 1 h, 10 µM?
0.9

Further cases:
Sample `O=C(Nc1nc2cccc(-c3ccc(C(=O)N4CCS(=O)(=O)CC4)cc3)n2n1)C1CC1` — what was its efflux ratio at 1 h, 10 µM?
97.6

* * *

Kindly state percentage bound to plasma, Rat for each of the entries shown.
- Run Description: Plasma protein binding (equilibrium dialysis), rat
- Assay type: in vitro ADME
- Assay Context: 10 μM, 4 hrs at 37° C.

Fill blank: measured percentage bound to plasma, Rat of the molecule `O=C(Nc1nc2cccc(-c3ccc(CN4CCS(=O)(=O)CC4)cc3)n2n1)C1CC1` is ____.
65.7%

Which percentage bound to plasma, Rat reading was recorded for the molecule `O=C(Nc1nc2cccc(-c3ccc(CN4CCOCC4)cc3)n2n1)C1CC1` ?
64.5%

What value of percentage bound to plasma, Rat has been recorded for this entry: `O=C(Nc1nc2cccc(-c3ccc(CN4CCC(F)(F)CC4)cc3)n2n1)C1CC1`
76.5%

Below: the item to evaluate.
Could you tell me which percentage bound to plasma, Rat is on file for `O=C(Nc1nc2cccc(-c3ccc(C(=O)N4CCS(=O)(=O)CC4)cc3)n2n1)C1CC1` ?
51%
